Value source: patent US6613795B2

# UniProt P10980: Ki values follow
# Sequence (P10980 whole entry): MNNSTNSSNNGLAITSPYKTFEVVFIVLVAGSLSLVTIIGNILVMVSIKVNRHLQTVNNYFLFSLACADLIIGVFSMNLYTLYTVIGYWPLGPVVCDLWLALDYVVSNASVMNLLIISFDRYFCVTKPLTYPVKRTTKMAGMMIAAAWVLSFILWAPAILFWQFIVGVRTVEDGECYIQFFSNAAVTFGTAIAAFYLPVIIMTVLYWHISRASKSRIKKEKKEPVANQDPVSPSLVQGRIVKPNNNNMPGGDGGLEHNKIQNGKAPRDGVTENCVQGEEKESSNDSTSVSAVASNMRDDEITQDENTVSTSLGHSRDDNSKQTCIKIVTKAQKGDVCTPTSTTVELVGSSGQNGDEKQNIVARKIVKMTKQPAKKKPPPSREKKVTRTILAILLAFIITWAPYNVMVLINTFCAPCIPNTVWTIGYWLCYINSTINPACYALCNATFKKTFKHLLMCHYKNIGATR
measure: Ki (nM)

In [3]: df
Out[3]:
                         compound_structure  endpoint_value
0  C[N+]1(C)CC[C@@H](OC(=O)[C@@](O)(c2ccccc2)C2CCCC2)C1               1
1  C[N+]1(C)CC[C@H](OC(=O)[C@@](O)(c2ccccc2)C2CCCC2)C1            13.2
